Data provenance: patent US20240217982A1

# test target: KRAS G12D (Homo sapiens (Human), UniProt P01116, G12D)
# Sequence (P01116-2 other isoform, or with tags, fused parts or gaps G12D): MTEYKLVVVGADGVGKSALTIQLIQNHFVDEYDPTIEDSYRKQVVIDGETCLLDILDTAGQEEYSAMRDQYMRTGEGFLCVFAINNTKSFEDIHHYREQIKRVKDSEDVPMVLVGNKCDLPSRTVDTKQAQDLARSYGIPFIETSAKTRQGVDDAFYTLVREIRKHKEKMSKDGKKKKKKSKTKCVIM
# protocol: KRAS G12D RAF Disruption Assay (HTRF)
# Format: biochemical
# protocol conditions: recombinant GMPPNP-loaded KRAS G12D (5 nM), GST-RAF1 RBD (9 nM), HTRF signal
observation type: KRASG12D RAF Disruption Assay (IC50, µM) (µM)

Reference set (3 entries):
{"compound": "CN1CCC[C@H]1COc1nc(N2CC[C@H]3CC[C@@H](C2)N3)c2cc(Cl)c(-c3cc(O)cc4ccccc34)c(F)c2n1", "KRASG12D RAF Disruption Assay (IC50, µM) / µM": 3.68}
{"compound": "Cc1cc(N)nc(-c2c(Cl)cc3c(N4CC[C@H]5CC[C@@H](C4)N5)nc(OCC4(CN5CCCCC5)CC4)nc3c2F)c1C(F)(F)F", "KRASG12D RAF Disruption Assay (IC50, µM) / µM": 2.6}
{"compound": "Cc1cc(N)nc(-c2c(Cl)cc3c(N4CC[C@H]5CC[C@@H](C4)N5)nc(OCC4(CN5CCCC(F)C5)CC4)nc3c2F)c1C(F)(F)F (stereo partly shown) [Example 10-3]", "KRASG12D RAF Disruption Assay (IC50, µM) / µM": 2.7}

I. CCc1cccc2cc(O)cc(-c3c(Cl)cc4c(N5CC[C@H]6CC[C@@H](C5)N6)nc(OC[C@@]56CCCN5C[C@H](F)C6)nc4c3F)c12 (single isomer, unassigned) [Example 8-2]
II. Cc1cc(N)nc(-c2c(Cl)cc3c(N4CC[C@H]5CC[C@@H](C4)N5)nc(OC[C@@]45CCCN4C[C@@H](OC(F)F)C5)nc3c2F)c1C(F)(F)F (single isomer, unassigned) [Example 10-5]
III. C#Cc1c(F)ccc2cc(O)cc(-c3ccc4c(N5CC[C@H]6CC[C@@H](C5)N6)nc(OC[C@]56CCC[C@H]5N(C)CCC6)nc4c3F)c12
Rank the items in ascending order with respect to KRASG12D RAF Disruption Assay (IC50, µM). List labels; respect the requested ordering. III, I, II
(III: 0.2 µM, I: 19.6 µM, II: 81 µM)
